- assay-overview: Viscosity responsiveness: fluorescence emission spectra of probes in glycerol and methanol
- Assay type: physicochemical
- applied-conditions: probe 1×10^−5 M
recorded-metric: Fluorescence ratio in glycerol to methanol
Keep it simple and answer with nothing but the number.

{"molecule": "CN(C)c1ccc(-c2ccc(/C=C(\\C#N)C(=O)NCc3ccc(COc4nc(N)nc5[nH]cnc45)cc3)s2)s1 [Reference Probe 119, reference compound]", "value-measured": 362}
{"molecule": "CN(CCOC(=O)NCc1ccc(COc2nccc(N)n2)cc1)c1ccc(C#C/C=C(\\C#N)C(=O)OC(C)(C)C)cc1 [probe 57]", "value-measured": 762}
{"molecule": "N#C/C(=C\\c1cc2c3c(c1)CCCN3CCC2)C(=O)NCC(=O)NCc1ccc(COc2nc(N)nc3[nH]cnc23)cc1 [Reference Probe BG-Gly-CCVJ, reference compound]", "value-measured": 260}
{"molecule": "CN(CCOC(=O)NCc1ccc(COc2nc(N)nc3[nH]cnc23)cc1)c1ccc2nc(/C=C(\\C#N)c3nc4ccccc4o3)oc2c1 [probe 46]", "value-measured": 682}
{"molecule": "CC1=CC(C)(C)N(CCOC(=O)NCc2ccc(COc3nccc(N)n3)cc2)c2ccc(/C=C(\\C#N)c3nc4ccccc4s3)cc21 [probe 91]", "value-measured": 163}

# next molecule below
Which Fluorescence ratio in glycerol to methanol reading was recorded for the molecule CN(CCOC(=O)NCc1ccc(COc2nc(N)nc3[nH]cnc23)cc1)c1ccc(C2=C(C#N)C(=C(C#N)C#N)OC2(C)C)cc1 [probe 18] ?
301

====

- assay-overview: Viscosity responsiveness: fluorescence emission spectra of probes in glycerol and methanol
- Format: physicochemical
- applied-conditions: probe 1×10^−5 M
Recorded Fluorescence ratio in glycerol to methanol, one value per entry.
# respond with the number and nothing more

// below: answered compounds
{"compound": "CC1=CC(C)(C)N(CCOC(=O)NCc2ccc(COc3nc(N)nc4[nH]cnc34)cc2)c2ccc(/C=C(\\C#N)c3nc4ccccc4s3)cc21 [probe 89]", "value-measured": 129}
{"compound": "N#C/C(=C\\c1cc2c3c(c1)CCCN3CCC2)C(=O)NCc1ccc(COc2nc(N)nc3[nH]cnc23)cc1 [Reference Probe BG-CCVJ, reference compound]", "value-measured": 260}
{"compound": "CN(CCOC(=O)NCc1ccc(COc2cc(Cl)nc(N)n2)cc1)c1cc2sc(/C=C(\\C#N)C(=O)OC(C)(C)C)cc2s1 [probe 24]", "value-measured": 1681}

// query Fluorescence ratio in glycerol to methanol value for entry CN(CCOC(=O)NCc1ccc(COc2nccc(N)n2)cc1)c1ccc(-c2ccc(/C=C(\C#N)c3nc4ccccc4s3)s2)s1 [probe 82]
241

Then N#C/C(=C\c1ccc2c(c1)SCCN2CCO)C(=O)NCc1ccc(COc2nc(N)nc3[nH]cnc23)cc1 [Reference Probe 104, reference compound] ?
351

Try this compound next: CN(CCOC(=O)NCc1ccc(COc2nccc(N)n2)cc1)c1ccc2nc(/C=C(\C#N)C(=O)OC(C)(C)C)sc2c1 [probe 53]
401

====

- assay-overview: Fluorescence of free probe prior to binding to a protein tag
- Type: physicochemical
recorded-metric: Quantum yield of free probe

{"molecule": "COCCOCCOCCOCCOCCN(CCOC(=O)NCc1ccc(COc2nc(N)nc3[nH]cnc23)cc1)c1ccc(/C=C(\\C#N)C(=O)OC(C)(C)C)cc1 [probe 12]", "Quantum yield of free probe": 0.0012}
{"molecule": "CN(CCOC(=O)NCc1ccc(COc2nccc(N)n2)cc1)c1ccc(-c2ccc(/C=C(\\C#N)c3nc4ccccc4o3)s2)s1 [probe 81]", "Quantum yield of free probe": "<0.001"}

Now for another entry.
Given the entry CN(CCOC(=O)NCc1ccc(COc2nccc(N)n2)cc1)c1ccc(/C=C(\C#N)C(=O)OC(C)(C)C)cc1 [probe 7] , report its measured Quantum yield of free probe.
<0.001
